target: 11β-HSD1 (Homo sapiens (Human))
Each entry below carries its recorded pIC50.
Recall that pIC50 is obtained by taking minus log10 of the concentration measured in molar.

Worked examples, 7 compounds total:
O=C(NC1C2CC3CC1CC(O)(C3)C2)C1(CNS(=O)(=O)c2ccccc2F)CC1 (centres unmarked) [Example 2] ... 7.58
NC(=O)C12CC3CC(C1)C(NC(=O)c1cccc(NS(=O)(=O)c4ccc(F)cc4)c1)C(C3)C2 (centres unmarked) [Example 94] ... 7.12
CN(c1cccc(C(=O)NC2C3CC4CC2CC(C(N)=O)(C4)C3)c1)S(=O)(=O)c1ccccc1C(F)(F)F (centres unmarked) [Example 99] ... 8.72
NC(=O)C12CC3CC(C1)C(NC(=O)C1(NC(=O)c4cccc(F)c4F)CC1)C(C3)C2 (centres unmarked) [Example 59] ... 7.95
Cc1cccc(F)c1S(=O)(=O)NC1(C(=O)NC2C3CC4CC2CC(C(N)=O)(C4)C3)CC1 (centres unmarked) [Example 40] ... 8.77
Cc1cccc(F)c1S(=O)(=O)NCC1(C(=O)NC2C3CC4CC2CC(C(N)=O)(C4)C3)CC1 (centres unmarked) [Example 10] ... 8.60
O=C(NC1CC2CCC1C2)C1(NS(=O)(=O)c2cccc(Cl)c2)CC1 (centres unmarked) [Example 55] ... 8.08

Then there is this compound:
Entry Cn1ccc2cc(S(=O)(=O)NCC3(C(=O)NC4C5CC6CC4CC(C(N)=O)(C6)C5)CC3)ccc21 (centres unmarked) [Example 26] , pIC50 reported as 8.92

---

pIC50 data for 11β-HSD1 (Homo sapiens (Human), UniProt P28845) follow.
Recall that pIC50 is obtained by taking minus log10 of the concentration measured in molar.

NC(=O)C12CC3CC(C1)C(NC(=O)c1cccc([N-]S(=O)(=O)c4cccc(Cl)c4F)c1)C(C3)C2.[Na+] (stereo not shown) ... 8.57
NC(=O)C12CC3CC(C1)C(NC(=O)c1cccc(NS(=O)(=O)C4CC4)c1)C(C3)C2 (stereo not shown) ... 7.21
NC(=O)C12CC3CC(C1)C(NC(=O)C1(CNC(=O)N4CCc5ccccc5C4)CC1)C(C3)C2 (stereo not shown) ... 7.01

Known value: 11β-HSD1 (Homo sapiens (Human), UniProt P28845) pIC50 of the compound Cc1c(Cl)cccc1S(=O)(=O)NC1(C(=O)NC2C3CC4CC2CC(C(N)=O)(C4)C3)CC1 (stereo not shown) equals 8.00

Known value: 11β-HSD1 (Homo sapiens (Human), UniProt P28845) pIC50 of the compound NC(=O)C12CC3CC(C1)C(NC(=O)C1(CNC(=O)N4CCNc5ccccc54)CC1)C(C3)C2 (stereo not shown) equals 6.89

Known value: 11β-HSD1 (Homo sapiens (Human), UniProt P28845) pIC50 of the compound NC(=O)C12CC3CC(C1)C(NC(=O)C1(CNS(=O)(=O)c4ccc(F)c(F)c4)CC1)C(C3)C2 (stereo not shown) equals 7.51

Known value: 11β-HSD1 (Homo sapiens (Human), UniProt P28845) pIC50 of the compound CN(C(C)(C)C(=O)NC1C2CC3CC1CC(C(N)=O)(C3)C2)S(=O)(=O)c1ccccc1F (stereo not shown) equals 8.92

---

Each entry below carries its recorded pIC50.
target: UniProt:P28845
Recall that pIC50 is obtained by taking minus log10 of the concentration measured in molar.

Worked examples, 6 molecules total:
NC(=O)C12CC3CC(C1)C(NC(=O)c1cccc(NS(=O)(=O)c4ccc(F)cc4F)c1)C(C3)C2 (stereo not shown) ... 8.11
NC(=O)C12CC3CC(C1)C(NC(=O)C1(CNS(=O)(=O)c4ccc(F)cc4C(F)(F)F)CC1)C(C3)C2 (stereo not shown) ... 6.99
Cc1c(Cl)cccc1S(=O)(=O)NCC1(C(=O)NC2C3CC4CC2CC(C(N)=O)(C4)C3)CC1 (stereo not shown) ... 8.57
NC(=O)C12CC3CC(C1)C(NC(=O)c1cccc(NS(=O)(=O)c4ccc(Br)cc4Cl)c1)C(C3)C2 (stereo not shown) ... 7.84
CC(C)(NS(=O)(=O)c1ccccc1F)C(=O)NC1C2CC3CC1CC(C(N)=O)(C3)C2 (stereo not shown) ... 9.22
Cc1cc(S(=O)(=O)NC2(C(=O)NC3C4CC5CC3CC(C(N)=O)(C5)C4)CC2)c(Cl)cc1Cl (stereo not shown) ... 7.53

Entry NC(=O)C12CC3CC(C1)C(NC(=O)c1cccc(NS(=O)(=O)c4cccc(F)c4)c1)C(C3)C2 (stereo not shown) , pIC50 reported as 7.57

---

target: 11β-HSD1 (Homo sapiens (Human), UniProt P28845)
Sequence (P28845 whole entry): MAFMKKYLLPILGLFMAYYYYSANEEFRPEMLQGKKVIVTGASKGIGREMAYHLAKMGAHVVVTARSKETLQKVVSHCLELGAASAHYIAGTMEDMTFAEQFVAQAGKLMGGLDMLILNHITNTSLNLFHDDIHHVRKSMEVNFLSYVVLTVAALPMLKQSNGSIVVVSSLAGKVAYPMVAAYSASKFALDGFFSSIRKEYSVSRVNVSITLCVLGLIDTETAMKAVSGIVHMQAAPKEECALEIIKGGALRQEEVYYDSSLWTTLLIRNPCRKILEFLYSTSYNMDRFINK
pIC50: −log10 of the molar value.
// label = Y if pIC50 is not less than 8, otherwise N

Example cases with answers are listed next.
NC(=O)C12CC3CC(C1)C(NC(=O)c1cccc(NS(=O)(=O)c4cccc(Cl)c4)c1F)C(C3)C2 (stereo not shown) ... N
NC(=O)C12CC3CC(C1)C(NC(=O)c1cccc(NS(=O)(=O)c4c(Cl)cc(Cl)cc4Cl)c1)C(C3)C2 (stereo not shown) ... Y
NC(=O)C12CC3CC(C1)C(NC(=O)c1cccc(NS(=O)(=O)c4ccccc4)c1)C(C3)C2 (stereo not shown) ... N

Prompt line: Hi team, for NC(=O)C12CC3CC(C1)C(NC(=O)C1(CNS(=O)(=O)c4cccc(Cl)c4)CC1)C(C3)C2 (stereo not shown) , is the recorded pIC50 at or above 8?
Response line: Y

Prompt line: Hi team, for NC(=O)C12CC3CC(C1)C(NC(=O)c1cccc(NS(=O)(=O)c4ccco4)c1)C(C3)C2 (stereo not shown) , is the recorded pIC50 at or above 8?
Response line: N

Prompt line: Hi team, for Cc1cc(S(=O)(=O)NCC2(C(=O)NC3C4CC5CC3CC(C(N)=O)(C5)C4)CC2)c(F)cc1Cl (stereo not shown) , is the recorded pIC50 at or above 8?
Response line: N

Prompt line: Hi team, for Cc1nc(C)c(S(=O)(=O)Nc2cccc(C(=O)NC3C4CC5CC3CC(C(N)=O)(C5)C4)c2)s1 (stereo not shown) , is the recorded pIC50 at or above 8?
Response line: N

Prompt line: Hi team, for NC(=O)C12CC3CC(C1)C(NC(=O)c1ccccc1NS(=O)(=O)c1ccccc1F)C(C3)C2 (stereo not shown) , is the recorded pIC50 at or above 8?
Response line: N
